test: Inhibition of rat intestinal alpha-glucosidase
RESULT_TYPE: IC50 (µM)
Reply numerically in µM, unit not repeated.

Observe how each entry below is paired with its result.
CCOC(=O)[C@H]1[C@H](C2O[C@@H]3OC(C)(C)O[C@@H]3[C@H]2OCc2ccccc2)[C@@H](C(=O)OCC)N[C@H]1c1ccc(Br)cc1 (single isomer, unassigned) :: 64
CCOC(=O)[C@H]1[C@H](C2O[C@@H]3OC(C)(C)O[C@@H]3[C@H]2OCc2ccccc2)[C@@H](C(=O)OCC)N[C@H]1c1cc(Cl)ccc1Cl (single isomer, unassigned) :: 99
CCOC(=O)[C@H]1[C@H]([C@@H]2O[C@@H]3OC(C)(C)O[C@@H]3[C@H]2OCc2ccccc2)[C@@H](C(=O)OCC)N[C@H]1c1cccc([N+](=O)[O-])c1 :: 61

Prompt line: Fill in IC50 for record CCOC(=O)[C@H]1[C@H](C2O[C@@H]3OC(C)(C)O[C@@H]3[C@H]2OCc2ccccc2)[C@@H](C(=O)OCC)N[C@H]1c1cccc(Cl)c1 (single isomer, unassigned)
Response line: 96

Prompt line: Fill in IC50 for record CCOC(=O)[C@H]1[C@H](C2O[C@@H]3OC(C)(C)O[C@@H]3[C@H]2OCc2ccccc2)[C@@H](C(=O)OCC)N[C@H]1c1ccc(F)cc1 (single isomer, unassigned)
Response line: 75
